- Test system: A549 cells
- Protocol Description: Proliferation Assay (A549 viability, Cell Titer Fluor, 72 hours)
- Type: cell-based
- Experimental Conditions: Homo sapiens, read-out: EC50 against A549 cell proliferation
pEC50: −log10 of the molar value.
Assay Endpoint: pEC50

Reference set, count: 5
Compound	Assay Endpoint	Result
O=C(Cc1cccc(OC(F)(F)F)c1)Nc1ccc(N2CCCC(c3nnc(NC(=O)Cc4ccccn4)s3)C2)nn1 (stereo not drawn)	pEC50	> 7.00
Nc1nnc(C2CCCN(c3ccc(NC(=O)Cc4cccc(OC(F)(F)F)c4)nn3)C2)s1 (stereo not drawn)	pEC50	5.30 to 6.30
CNC(=O)c1nnc(N2CCC(c3ccc(NC(=O)Cc4cn(-c5cccc(OC(F)(F)F)c5)cn4)nn3)C2)s1 (stereo not drawn)	pEC50	> 7.00
Nc1nnc(C2CCCN(c3nnc(NC(=O)Cc4cccc(OC(F)(F)F)c4)s3)C2)s1 (stereo not drawn)	pEC50	5.30 to 6.30
CC(=O)Nc1nnc(C2CCCN(c3ccc(NC(=O)Cc4ccccc4)nn3)C2)s1 (stereo not drawn)	pEC50	5.30 to 6.30

Data request: Please report pEC50 for the following compound: O=C(Cc1cccc(OC(F)(F)F)c1)Nc1ccc(N2CCC(c3nnc(NC(=O)Cc4ccccc4F)s3)C2)nn1 (stereo not drawn) [Example 20, 2,2,2-trifluoroacetate]
Data returned: 6.30 to 7.00

Data request: Tell me its pEC50 given Nc1nnc(C2CCCN(c3ccc(NC(=O)Cc4ccccc4)nn3)C2)s1 (stereo not drawn) as the entry.
Data returned: 5.30 to 6.30

Data request: Supply reported pEC50 belonging to this compound: `O=C(Cc1ccccn1)Nc1ccc([C@@H]2CCN(c3nnc(C(=O)NCc4ccccn4)s3)C2)nn1`
Data returned: > 7.00

Data request: Provide one value: measured pEC50 of CC(=O)Nc1nnc(C2CCN(c3ccc(NC(=O)Cc4cccc(OC(F)(F)F)c4)nn3)C2)s1 (stereo not drawn)
Data returned: 6.30 to 7.00

Data request: Indicate its recorded pEC50; the compound in question is CNC(=O)c1cn(C2CCN(c3ccc(NC(=O)Cc4cccc(OC(F)(F)F)c4)nn3)C2)nn1 (stereo not drawn)
Data returned: 5.30 to 6.30

Data request: Item O=C(Cc1cccc(OC(F)(F)F)c1)Nc1ccc(C2CCN(c3nnc(C(=O)NCc4ccccn4)s3)C2)nn1 (stereo not drawn) : provide pEC50
Data returned: > 7.00

Data request: Note down pEC50 recorded for O=C(Cc1ccccn1)Nc1ccc(C2CCN(c3nnc(C(=O)NCc4cc(C(F)(F)F)ccn4)s3)C2)nn1 (stereo not drawn)
Data returned: > 7.00

Data request: Note pEC50 for the compound shown: Cc1cccc(CNC(=O)c2nnc(N3CCC(c4ccc(NC(=O)Cc5cc(OC6CC(F)(F)C6)cc(C)n5)nn4)C3)s2)n1 (stereo not drawn)
Data returned: > 7.00

Data request: Identify measured pEC50 corresponding to `Cc1cc(C(F)(F)F)cc(CNC(=O)c2nnc(N3CC[C@@H](c4ccc(NC(=O)Cc5ccccn5)nn4)C3)s2)n1`
Data returned: > 7.00

Data request: Please look at this compound and report its pEC50: Cn1cc(CC(=O)Nc2nnc(C3CCN(c4ccc(NC(=O)Cc5cccc(OC(F)(F)F)c5)nn4)C3)s2)cn1 (stereo not drawn) [Example 18, 2,2,2-trifluoroacetate]
Data returned: 6.30 to 7.00
